Parameter: Kd. Scope: all listed entries.
TARGET_OR_SYSTEM: T1, purified UBE2G2 (UniProt P60604 1-165, ^15N-labeled for NMR)
T1 construct: UBE2G2, purified recombinant protein used for ITC, FP, MST and NMR; also called apo-UBE2G2; ^15N-labeled UBE2G2
T1 sequence (looked up): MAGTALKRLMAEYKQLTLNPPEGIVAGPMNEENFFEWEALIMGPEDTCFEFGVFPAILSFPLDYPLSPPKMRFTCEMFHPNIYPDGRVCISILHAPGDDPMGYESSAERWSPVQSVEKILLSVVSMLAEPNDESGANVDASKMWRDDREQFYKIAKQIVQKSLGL
ASSAY_METHOD_TEXT: ITC; 30 μM G2BR peptide injected into 3 μM UBE2G2 in the cell, PBS pH 7.4, 25°C, one set of sites model
CONDITION_DETAILS: both partners purified
MEASUREMENT_TYPE: Kd (nM)

BINDER	READOUT_VALUE
WSADERQRMLVQRKDELLQQARKRFLNK (N-terminal Trp residue added for peptide quantification; Natural stretch with one extra N-terminal Trp added for quantification; also called gp78 G2BR; source: synthetic peptide (GenScript)) [G2BR^gp78 peptide (aa 574 to 600, with an added N-terminal Trp)]	2.7
SSWARQESLQERKQALYEYARRRFTER (also called AUP1 G2BR; source: synthetic peptide (GenScript)) [G2BR^AUP1 peptide (aa 378 to 404)]	3.1
